Tested on: Hepatotoxicity;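 note: Hepatitis-related hepatic side effect score taken from the training data of DILIps, a prediction system for drug-induced liver injury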; note: call rule not given here
parameter measured: HepSE_hepatitis
Number only, please.

CN1CCC(=C2c3ccccc3CCc3sccc32)CC1
0
CC1(C)C(C=C(Cl)Cl)C1C(=O)OCc1cccc(Oc2ccccc2)c1 (stereo not drawn)
0
[Ca+2].[H-].[H-]
0
S=P(N1CC1)(N1CC1)N1CC1
0
C[C@H](/C=C/[C@H](C)C(C)(C)O)[C@H]1CC[C@H]2/C(=C/C=C3C[C@@H](O)C[C@H](O)C3)CCC[C@]12C
0
CC1COc2c(N3CCN(C)CC3)c(F)cc3c(=O)c(C(=O)O)cn1c23 (stereo not drawn)
1
[H]/N=C(\N/C(=N/[H])NCCCCCCNC(=N)NC(=N)Nc1ccc(Cl)cc1)Nc1ccc(Cl)cc1
0
COc1cc(N)c(Cl)cc1C(=O)NC1CCN(CCCOc2ccc(F)cc2)CC1OC (stereo not drawn) [CISAPRIDE]
1
COc1cc(NC(C)CCCN)c2ncccc2c1 (stereo not drawn)
0
COC(=O)[C@H]1[C@H]2C[C@@H]3c4[nH]c5cc(OC)ccc5c4CCN3C[C@H]2C[C@@H](OC(=O)c2cc(OC)c(OC)c(OC)c2)[C@@H]1OC
0

Problem: Returns the measured HepSE_hepatitis for the input compound. Input: CN(C)CCC=C1c2ccccc2COc2ccccc21 [DOXEPIN]
Solution: 0

Problem: Returns the measured HepSE_hepatitis for the input compound. Input: CC(C)NCC(O)c1ccc(NS(C)(=O)=O)cc1 (stereo not drawn)
Solution: 0

Problem: Returns the measured HepSE_hepatitis for the input compound. Input: "CC[C@H](C)[C@@H]1NC(=O)[C@H](Cc2ccc(O)cc2)NC(=O)[C@@H](N)CSSC[C@@H](C(=O)N2CCC[C@H]2C(=O)N[C@@H](CC(C)C)C(=O)NCC(N)=O)NC(=O)[C@H](CC(N)=O)NC(=O)[C@H](CCC(N)=O)NC1=O"
Solution: 0
